Each entry below carries its reported Doubling Time.
# Tested on: A549 cells
# assaySetup: human, 10 µM
Answer format: numeric, h implied, no suffix.

Req: Read off the recorded Doubling Time for `Cc1ccc(OC(=O)c2ccc(CN3CCN(C)CC3)cc2)cc1Nc1nc(-c2cccnc2)cs1`
Resp: 25.19

Req: For the compound `CC(=O)Nc1ccc(C)c(Nc2nc(-c3cccnc3)cs2)c1` , give its reported Doubling Time.
Resp: 37.36

Req: Write down Doubling Time measured for item `Cc1ccc(NC(=O)c2ccc(CN3CCN(C)CC3)cc2O)cc1Nc1nc(-c2cccnc2)cs1`
Resp: 33.63

Req: Please supply the value of reported Doubling Time for the item `Cc1ccc(NC(=O)c2ccc(CN3CCN(C)CC3)c(O)c2)cc1Nc1nc(-c2cccnc2)cs1`
Resp: 52.78

Req: Consider the compound `Cc1ccc(C(=O)Nc2ccc(C)c(Nc3nc(-c4cccnc4)cs3)c2)cc1` and give its recorded Doubling Time.
Resp: 30.76

---

# Doubling Time listing for each entry below
# System: A549 cells
# assaySetup: human, 0.3 µM
Number only, in h; omit the unit.

Req: Assign Doubling Time to the following record: `Cc1ccc(NC(=O)c2ccc(CN3CCN(C)CC3)cc2O)cc1Nc1nc(-c2cccnc2)cs1`
Resp: 21.52

Req: Report measured Doubling Time; entry is `Cc1ccc(C(=O)Nc2ccc(C)c(Nc3nc(-c4cccnc4)cs3)c2)cc1`
Resp: 22.13

---

# Test system: A549 cells
# assaySetup: human, 3 µM
Recorded measurements of Doubling Time, one per entry
Answer with a number only, understood to be in h.

Worked cases, answers included:
Cc1ccc(NC(=O)c2ccc(CN3CCN(C)CC3)c(O)c2)cc1Nc1nc(-c2cccnc2)cs1 ... 23.72
Cc1ccc(NC(=O)c2ccc(CN3CCN(C)CC3)cc2O)cc1Nc1nc(-c2cccnc2)cs1 ... 21.57
Cc1ccc(C(=O)Nc2ccc(C)c(Nc3nc(-c4cccnc4)cs3)c2)cc1 ... 22.49
Cc1ccc(OC(=O)c2ccc(CN3CCN(C)CC3)cc2)cc1Nc1nc(-c2cccnc2)cs1 ... 21.83

Now look at this entry.
Req: Identify measured Doubling Time corresponding to `CC(=O)Nc1ccc(C)c(Nc2nc(-c3cccnc3)cs2)c1`
Resp: 22.28

---

# Tested on: A549 cells
# assaySetup: human, 0.3 µM
measuredEndpoint: Doubling Time

Solved cases (2 shown):
Cc1ccc(OC(=O)c2ccc(CN3CCN(C)CC3)cc2)cc1Nc1nc(-c2cccnc2)cs1 [M5] ... 22.37 h
CC(=O)Nc1ccc(C)c(Nc2nc(-c3cccnc3)cs2)c1 [M4] ... 22.01 h

Next compound, Doubling Time to be filled in.
Req: Provide Doubling Time value for the following compound: Cc1ccc(NC(=O)c2ccc(CN3CCN(C)CC3)c(O)c2)cc1Nc1nc(-c2cccnc2)cs1 [M1]
Resp: 21.75 h
